Each recorded value in this set is attributed to paper PMC3409115.

Form field: HTS binding score (one value per entry).
target: T. cruzi CYP51 (Trypanosoma cruzi, UniProt Q7Z1V1); construct: had the first 21 residues upstream of K22 replaced with the fragment MAKKKKK; His6 (C); made in house; experiment: HTS spectral-mode binding screen, type II difference spectra scored 0-5; details: spectral mode, four serial dilutions 2 µM to 12.5 µM, 2 µM CYP51
Sequence (Q7Z1V1 15-481, looked up, natural form): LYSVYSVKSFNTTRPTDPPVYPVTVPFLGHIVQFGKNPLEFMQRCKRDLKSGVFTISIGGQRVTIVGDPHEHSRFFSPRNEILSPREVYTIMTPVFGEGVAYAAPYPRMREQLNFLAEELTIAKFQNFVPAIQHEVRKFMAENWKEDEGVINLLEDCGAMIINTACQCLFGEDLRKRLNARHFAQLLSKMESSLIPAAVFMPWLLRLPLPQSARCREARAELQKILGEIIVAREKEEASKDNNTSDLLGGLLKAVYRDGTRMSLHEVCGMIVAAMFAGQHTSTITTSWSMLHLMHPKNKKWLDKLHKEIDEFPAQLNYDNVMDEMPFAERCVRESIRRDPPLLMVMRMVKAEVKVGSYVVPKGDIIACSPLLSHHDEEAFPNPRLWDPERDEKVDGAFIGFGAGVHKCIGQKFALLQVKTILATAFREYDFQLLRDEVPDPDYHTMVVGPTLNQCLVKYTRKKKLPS

INSERT INTO assay_data (compound, result) VALUES
  ('Cn1c(=O)c2c(nc(NCc3cccnc3)n2Cc2cccc3ccccc23)n(C)c1=O [Compound 161]', 4),
  ('COc1ccc(C(=O)C(OC(=O)c2ccncc2)c2ccccc2)cc1 (stereo not shown) [Compound 106]', 4),
  ('Cc1cc(Cl)ccc1OCCCC(=O)NCc1cccnc1 [Compound 77]', 4),
  ('N=C(NOC(=O)c1ccc(Br)o1)c1ccncc1 [Compound 69]', 4);

### Prompt Data request, read-out HTS binding score, for Cc1nnc(NCc2cccnc2)c2c1nnn2Cc1ccc(F)cc1 [Compound 109]
### Response 5

### Prompt Another compound: Cc1ccc(OCCCn2ccnc2)c(C)c1 [Compound 45]
### Response 5

### Prompt Another compound: CC(NC(=O)C12CC3CC(C1)CC(n1cncn1)(C3)C2)C12CC3CC(CC(C3)C1)C2 (stereo not shown) [Compound 148]
### Response 4

### Prompt Another compound: CCCC/N=C(\S)N1CCn2cccc2C1c1cccnc1 (stereo not shown) [Compound 74]
### Response 4

### Prompt Another compound: COc1ccc(-c2[nH]nc3c2C(c2cccnc2)NC3=O)cc1 (stereo not shown) [Compound 65]
### Response 4

### Prompt Another compound: Cc1ccc(S(=O)(=O)NCCCOC(=O)Nc2ccncc2)cc1 [Compound 110]
### Response 5

### Prompt Another compound: COc1ccc(-c2nc3n(n2)C(c2cccs2)C(C(=O)Nc2cccnc2)=C(C)N3)cc1 (stereo not shown) [Compound 170]
### Response 4

### Prompt Another compound: Nc1cc(NC(=O)c2cccc(Cl)c2)cc(Oc2cccnc2)c1 [Compound 100]
### Response 4

### Prompt Another compound: Cc1ccc(Cl)cc1-n1ncc2c(NCc3cccnc3)ncnc21 [Compound 112]
### Response 4

### Prompt Another compound: Cc1ccc(NC(=O)C23CC4CC(C2)CC(n2cncn2)(C4)C3)c(C)c1 [Compound 111]
### Response 5

### Prompt Another compound: Cc1ccc(S(=O)(=O)N(CC(=O)Nc2cccnc2)c2cccc(C(F)(F)F)c2)cc1 [Compound 172]
### Response 4

### Prompt Another compound: CCOC(=O)C1=C(C)N(C)C(C)=C(C(=O)OCC)C1c1ccncc1 [Compound 104]
### Response 5

### Prompt Another compound: COc1cc(OC)cc(-c2cc3nc(C)c(CCC(=O)Nc4cccnc4)c(C)n3n2)c1 [Compound 163]
### Response 4

### Prompt Another compound: CCOC(=O)C1=C(N)Oc2ccc3ccccc3c2C1c1cccnc1 (stereo not shown) [Compound 51]
### Response 2

### Prompt Another compound: Cc1n[nH]c(C)c1CCc1nc2c3ccccc3nc(NCc3cccnc3)n2n1 [Compound 140]
### Response 5

----------
biological target: T. cruzi CYP51 (Trypanosoma cruzi); construct: had the first 21 residues upstream of K22 replaced with the fragment MAKKKKK; His6 (C); made in house; experiment: HTS spectral-mode binding screen, type II difference spectra scored 0-5; conditions: spectral mode, four serial dilutions 2 µM to 12.5 µM, 2 µM CYP51
Form field: HTS binding score (one value per entry).
Keep it simple and answer with nothing but the number.

Known results for compounds:
INSERT INTO results (compound, studytarget, quantity, numericresult) VALUES
  ('O=C(CNCc1cccnc1)Nc1ccc(OC(F)(F)F)cc1', 'T. cruzi CYP51 (Trypanosoma cruzi)', 'HTS binding score', 4),
  ('C=CCOc1ccc(C2c3c(-c4ccccc4O)n[nH]c3C(=O)N2Cc2ccncc2)cc1OCC (stereo not drawn)', 'T. cruzi CYP51 (Trypanosoma cruzi)', 'HTS binding score', 5),
  ('CCc1ccc(-c2cc3c(=O)n(CC(=O)NCc4cccnc4)nc(C)n3n2)cc1', 'T. cruzi CYP51 (Trypanosoma cruzi)', 'HTS binding score', 2),
  ('COc1ccc(-c2noc(CSc3nnc(-c4ccncc4)n3CC(C)C)n2)cc1OC', 'T. cruzi CYP51 (Trypanosoma cruzi)', 'HTS binding score', 4);

### Prompt Data request, read-out HTS binding score, for `CCC(C)(C)c1ccc(OCC(=O)Nc2ccncc2)cc1`
### Response 4

### Prompt Another compound: Cn1c(SCc2nc(-c3ccc(Cl)cc3)no2)nnc1-c1ccncc1 [Compound 134]
### Response 5

### Prompt Another compound: `Cc1c(C(=O)Nc2ccncc2)sc2nc(-c3ccccc3)cn12`
### Response 4

### Prompt Another compound: `Cc1cccc(Nc2nc(-c3ccncc3)cs2)n1`
### Response 4

### Prompt Another compound: COC(=O)C1=C(N)Oc2cc(C)n(CCc3ccc(OC)c(OC)c3)c(=O)c2C1c1cccnc1 (stereo not drawn)
### Response 3

----------
test system: T. cruzi-infected skeletal myoblasts (intracellular amastigotes); assay: Hit cross-validation in T. cruzi-infected mammalian cells (image-based assay); format: cell-based, Trypanosoma cruzi; settings: Trypanosoma cruzi, Myoblast, 72 h, read-out: EC50 against T. cruzi parasites in HTS assay used to rank order the hits
quantity: EC50 (µM)
Report the value in µM with no unit label.

INSERT INTO measurements (compound, quantity, numericresult) VALUES
  ('C/C(=N\OC(=O)c1c(-c2ccccc2Cl)noc1C)c1ccncc1 [Compound 33]', 'EC50', 6.78);

### Prompt Data request, read-out EC50, for Nc1c(C(=O)NCCc2c[nH]c3ccccc23)sc2nc(-c3cccnc3)ccc12 [Compound 57]
### Response 9.74

### Prompt Another compound: Cc1ccc2nc(NC(=O)C3CCN(S(=O)(=O)c4cccnc4)CC3)sc2c1 [Compound 39]
### Response 7.64

### Prompt Another compound: c1ccc2c(c1)-c1ccccc1C2n1ccnc1 [Compound 36]
### Response 7.24

### Prompt Another compound: Oc1cccc(Nc2nc(-c3ccncc3)cs2)c1 [Compound 37]
### Response 7.33

### Prompt Another compound: CCCCNC(=O)c1cc(-c2ccncc2)nc2ccccc12 [Compound 50]
### Response 8.4

----------
System: T. cruzi-infected skeletal myoblasts (intracellular amastigotes)
Assay: Hit cross-validation in T. cruzi-infected mammalian cells (image-based assay)
Assay type: cell-based, Trypanosoma cruzi
Conditions: Trypanosoma cruzi, Myoblast, 72 h, T. cruzi-infected myoblasts, 72 h treatment; read-out: EC50 against T. cruzi parasites in HTS assay used to rank order the hits
Protocol: Bovine embryo skeletal muscle cells or mouse C2C12 myoblasts (ATCC#CRL-1772) used in the cross-validation assay, were cultivated respectively in RPMI 1640 medium supplemented with 5% horse serum and Dulbecco's Modified Eagle's Medium H-21 containing 4.5 g/l glucose (DMEM H-21) (Cell Culture Facility, UCSF), supplemented with 5% fetal bovine serum (FBS) (Sigma Chemical Co., St. Louis, MO, USA), 25 mM HEPES, 2 mM L-glutamine, 100 U/ml penicillin, 100 µg/ml streptomycin. […]
Form field: log10 EC50 (one value per entry).
Units before log transform: nM; reported quantity: EC50; transform: log10.

Known results for compounds:
INSERT INTO measurements (compound, numericresult) VALUES
  ('Cc1ccc(OCCCn2ccnc2)c(C)c1', 3.90),
  ('Cc1ccc(/C(=C\n2ccnc2)c2ccccc2)cc1', 2.98),
  ('O=C(c1ccc(Cl)cc1)C(Oc1ccc(Cl)cc1)n1cncn1 (stereo not shown)', 3.12),
  ('Cc1ccc(C)c(OCCCCn2ccnc2)c1', 3.37),
  ('CCOC(=O)C1=C(N)Oc2ccc3ccccc3c2C1c1cccnc1 (stereo not shown)', 3.93);

### Prompt Data request, read-out log10 EC50, for `Clc1ccc(OCCCCCCn2ccnc2)cc1`
### Response 2.98

### Prompt Another compound: `Cc1ccc(OCCCCCn2ccnc2)cc1C`
### Response 2.74

----------
Form field: Toxicity score (highest percentage of host cell growth inhibition) (one value per entry).
test system: host cell (skeletal myoblasts, bovine embryo skeletal muscle or C2C12); assay: Host cell toxicity in the cross-validation assay; assay type: cell-based; details: host cells in cross-validation assay, up to 10 µM

INSERT INTO results (compound, result) VALUES
  ('CN(C)C(C/N=C(\S)NCCc1ccccc1)c1cccnc1 (centres unmarked) [Compound 46]', '1 (1-<20%)'),
  ('CC(C)/C=C1\CC/C(=C\c2ccncc2)C1=O [Compound 35]', '1 (1-<20%)');

### Prompt Data request, read-out Toxicity score (highest percentage of host cell growth inhibition), for CCOC(=O)C1=C(C)N(C)C(C)=C(C(=O)OCC)C1c1ccncc1 [Compound 29]
### Response 1 (1-<20%)

### Prompt Another compound: O=C(c1ccc(Cl)cc1Cl)C(c1cccnc1)C(O)C(Cl)(Cl)Cl (centres unmarked) [Compound 34]
### Response 2 (2-21-30%)

### Prompt Another compound: N#CC1=C(N)OC2=C(C(=O)CC(c3ccccc3)C2)C1c1cccnc1 (centres unmarked) [Compound 7]
### Response 4 (4-41-50%)

### Prompt Another compound: Brc1ccc(-c2csc(-c3ccncc3)n2)cc1 [Compound 18]
### Response 1 (1-<20%)

### Prompt Another compound: c1ccc2c(c1)-c1ccccc1C2n1ccnc1 [Compound 36]
### Response 3 (3- 31-40%)
